Each entry below carries its reported Ki.
experiment: Binding affinity to blood-brain barrier choline transporter in rat brain assessed as inhibition of [3H]choline uptake; type: tissue-based
Number only, in µM; omit the unit.

Asked: Look up and state reported Ki for `Cc1ccc[n+](CCCCCC[n+]2cccc(C)c2)c1`
Given back: 26

Asked: Look up and state reported Ki for `Cc1cc(C)c[n+](CCC#Cc2ccc(C#CCC[n+]3cc(C)cc(C)c3)cc2)c1`
Given back: 7.4

Asked: Look up and state reported Ki for `Cc1ccc[n+](CCCCCCCCCCCC[n+]2cccc(C)c2)c1`
Given back: 36

Continuing:
Asked: Look up and state reported Ki for `c1ccc2c[n+](CCCCCCCCCCCC[n+]3ccc4ccccc4c3)ccc2c1`
Given back: 22

Asked: Look up and state reported Ki for `Cc1cc[n+](CCC#Cc2ccc(C#CCC[n+]3ccc(C)cc3)cc2)cc1`
Given back: 8.5

Asked: Look up and state reported Ki for `Cc1ccc[n+](CCC#Cc2ccc(C#CCC[n+]3cccc(C)c3)cc2)c1`
Given back: 15

Asked: Look up and state reported Ki for `c1ccc2c[n+](CCCCCCCCCC[n+]3ccc4ccccc4c3)ccc2c1`
Given back: 10

---

experiment: Binding affinity to blood-brain barrier choline transporter in rat brain assessed as inhibition of [3H]choline uptake; assay type: tissue-based
RECORDED ENDPOINT: pKi
Please treat pKi as minus the base-10 logarithm of the molar concentration.

Recorded pKi, per entry:
Asked: Look up and state reported pKi for `C[N+](C)(C)CCO`
Given back: 4.39

Asked: Look up and state reported pKi for `Cc1cc[n+](CCC#Cc2ccc(C#CCC[n+]3ccc(C)c(C)c3)cc2)cc1C`
Given back: 5.08

Asked: Look up and state reported pKi for `Cc1ccc[n+](CCCCCCCC[n+]2cccc(C)c2)c1`
Given back: 4.62

Asked: Look up and state reported pKi for `c1ccc2c[n+](CCCCCC[n+]3ccc4ccccc4c3)ccc2c1`
Given back: 4.54

Continuing:
Asked: Look up and state reported pKi for `Cc1ccc[n+](CCCCCCCCCCC[n+]2cccc(C)c2)c1`
Given back: 4.44

---

assay: Binding affinity to blood-brain barrier choline transporter in rat brain assessed as inhibition of [3H]choline uptake; type: tissue-based
Each entry below carries its reported pKi.
Please treat pKi as minus the base-10 logarithm of the molar concentration.

Asked: Look up and state reported pKi for `C(#Cc1ccc(C#CCC[n+]2ccc3c(c2)CCCC3)cc1)CC[n+]1ccc2c(c1)CCCC2`
Given back: 5.27

Continuing:
Asked: Look up and state reported pKi for `CCCCCCCC[n+]1cccc([C@@H]2CCCN2C)c1`
Given back: 4.31

Asked: Look up and state reported pKi for `Cc1ccc[n+](CCCC#Cc2ccccc2C#CCCC[n+]2cccc(C)c2)c1`
Given back: 3.50

Asked: Look up and state reported pKi for `Cc1ccc[n+](CCCCCCCCC[n+]2cccc(C)c2)c1`
Given back: 4.52

Asked: Look up and state reported pKi for `Cc1ccc[n+](CCCC#Cc2cccc(C#CCCC[n+]3cccc(C)c3)c2)c1`
Given back: 3.85

Asked: Look up and state reported pKi for `Cc1ccc[n+](CCCCCCCCCC[n+]2cccc(C)c2)c1`
Given back: 4.66
